Biological target: T1, monkey CDH6 protein (cynoCDH6 ECD-his) (monkey (cyno), UniProt A0A2K5TW62 19-615)
T1 construct: range 19-615; also called Cyno CDH6-his; not shown: his tag
T1 sequence: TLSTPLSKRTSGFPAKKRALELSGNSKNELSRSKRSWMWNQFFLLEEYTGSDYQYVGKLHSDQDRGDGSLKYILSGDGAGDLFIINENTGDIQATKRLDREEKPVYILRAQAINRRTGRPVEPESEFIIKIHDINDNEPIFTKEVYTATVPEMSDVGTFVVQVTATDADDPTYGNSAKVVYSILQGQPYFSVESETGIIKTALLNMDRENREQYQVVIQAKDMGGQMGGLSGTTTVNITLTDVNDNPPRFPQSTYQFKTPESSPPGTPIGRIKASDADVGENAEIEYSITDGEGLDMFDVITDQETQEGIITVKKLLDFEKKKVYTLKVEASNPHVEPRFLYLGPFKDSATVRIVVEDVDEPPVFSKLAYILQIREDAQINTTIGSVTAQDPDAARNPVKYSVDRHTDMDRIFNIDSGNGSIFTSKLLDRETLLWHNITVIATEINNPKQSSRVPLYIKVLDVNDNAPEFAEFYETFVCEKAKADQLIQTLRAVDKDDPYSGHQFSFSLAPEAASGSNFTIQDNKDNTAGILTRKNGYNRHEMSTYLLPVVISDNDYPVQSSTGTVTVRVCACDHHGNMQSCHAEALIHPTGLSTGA
Assay: ELISA, coated antigen
testReadout: EC50 (nM)
Numbers only, in nM.

binder: CHI-CDH6-6 (antibody, human IgG1, kappa, V domains shown, also called CHI-hCDH6-6; chimeric antibody of murine CDH6-6) VH: EVQLQQSGPELVKPGDSVKMSCKASGYTFTDYYMAWVRQSHRKSLEWIGYIFPNSGGTDYSQKFKGKATLTVDKSSSTVYMELHSLTSEDSAVYYCARELGADYGDYYAMDHWGQGTSVSVSS VL: DIQMTQSPASLSASVGETVTITCRASENIDSYLAWYQQKQGKSPQLLVYSATLLADGVPSRFSGSGSGTQYSLKINSLKSEDVARYYCQHYYRTPPTFGSGTKLEIKR
measurementUnit: nM
EC50: 0.03

Exercise: Look at this binder and give its reported EC50. CHI-CDH6-1 (antibody, human IgG1, kappa, V domains shown, also called CHI-hCDH6-1; CH1-CDH6-1) VH: QVQLQQPGAELVRPGSSVKLSCKASGYTFTNYWMHWVKQRPIEGLEWIGDIDPSHSETHYTQKFKDKATLTVDKSSSTAYMQLSSLTSEDSAVYYCARGDLGRFDYWGQGTTLTVSS VL: DIVLTQSPASLAVSLGQRATISCRASESVSIHGTHLMHWYQQKSGQPPKLLIYAASNLESGVPARFSGSGSETDFTFNIHPVEEEDAATYFCQQSFEDPWTFGGGTKLEIKR
Solution: 0.023
